Tested on: human embryonic stem cells (H9 line)
method.description: High content screening assay: cell number (proliferative response)
Format: cell-based
settings: 10 μM test compound with 100 ng/ml activin A on days 1-2; H9; total cell number by IN Cell Analyzer; strong and moderate hits
reported.metric: Proliferative Response Fold over Wnt 3a/AA control

compound: O=C1NC(=O)C2=C1c1cn(c3ncccc13)CCOCCOCCOCCOCCn1cc2c2cccnc21 [Compound 6]
tested.target: human embryonic stem cells (H9 line)
assay.result: 1.9264 Fold over Wnt 3a/AA control
--
compound: COCCN1CCOCCn2cc(c3ccccc32)C2=C(C(=O)NC2=O)c2nn(c3ccccc23)CCOCC1 [Compound 10]
tested.target: human embryonic stem cells (H9 line)
assay.result: 0.8926 Fold over Wnt 3a/AA control
--
compound: O=C1CCCCn2cc(c3cccnc32)C2=C(C(=O)NC2=O)c2cn(c3ncccc23)CCCC1 [Compound 11]
tested.target: human embryonic stem cells (H9 line)
assay.result: 0.6025 Fold over Wnt 3a/AA control
--
compound: O=C1NC(=O)C2=C1c1cn(c3ncccc13)CCOCCOCCOCCn1cc2c2cccnc21 [Compound 167]
tested.target: human embryonic stem cells (H9 line)
assay.result: 0.9928 Fold over Wnt 3a/AA control
--
compound: O=C1NC(=O)C2=C1c1cn(c3ccccc13)CCOCCOCCOCCOCCn1cc2c2ccccc21 [Compound 165]
tested.target: human embryonic stem cells (H9 line)
assay.result: 5.8846 Fold over Wnt 3a/AA control
--
compound: O=C1NC(=O)C2=C1c1cn(c3ncccc13)CCOCCOCCOCCOCCn1cc2c2cccnc21 [Compound 169]
tested.target: human embryonic stem cells (H9 line)
assay.result: 1.0764 Fold over Wnt 3a/AA control

* * *

System: human embryonic stem cell line H9
method.description: Dose titration secondary assay: cell number, H9
Format: cell-based
settings: 10 μM compound
Mark Yes for Cell number under 0.8, No if at or over.

compound: CN1CCN(C)CCn2cc(c3ccccc32)C2=C(C(=O)NC2=O)c2cn(c3ccccc23)CC1 [Compound 111]
class.label: No

compound: CN1CCOCCOCCN(C)CCn2cc(c3ccccc32)C2=C(C(=O)NC2=O)c2cn(c3ccccc23)CC1 [Compound 112]
class.label: No

compound: CCN1CCOCCOCCn2cc(c3ccccc32)C2=C(C(=O)NC2=O)c2cn(c3ccccc23)CC1 [Compound 103]
class.label: Yes

compound: O=C1NC(=O)C2=C1c1cn(c3ccccc13)CCOCCOCCN(Cc1cccc3ccccc13)CCn1cc2c2ccccc21 [Compound 136]
class.label: Yes

* * *

Test system: human embryonic stem cell line H1
method.description: Dose titration secondary assay: cell number, H1
Assay type: cell-based
settings: Conc 2.5 μM, positive control (Wnt3a/Activin A) normalized to 1.000
Cell number below 1 gives NO; Cell number at or above it gives YES.

compound: O=C1NC(=O)C2=C1c1cn(c3ccccc13)CCOCCOCCN(Cc1cccs1)CCn1cc2c2ccccc21 [Compound 133]
class.label: NO
//
compound: O=C1NC(=O)C2=C1c1cn(c3ccccc13)CCOCCOCCN(Cc1cccc3ccccc13)CCn1cc2c2ccccc21 [Compound 136]
class.label: NO
//
compound: CCN1CCOCCOCCn2cc(c3ccccc32)C2=C(C(=O)NC2=O)c2cn(c3ccccc23)CC1 [Compound 103]
class.label: NO
//
compound: CN1CCN(C)CCn2cc(c3ccccc32)C2=C(C(=O)NC2=O)c2cn(c3ccccc23)CC1 [Compound 111]
class.label: YES

* * *

System: human embryonic stem cells (H9 line)
method.description: High content screening assay: cell number (proliferative response)
Format: cell-based
settings: cell number in the wells analysed for SOX-17 expression
Method: Maintenance of human embryonic stem cells (H9 line) was conducted as described in Example 1. Colonies of cells were maintained in an undifferentiated, pluripotent state with passage on average every four days. […] The human embryonic stem cell lines used were maintained at passage numbers less than passage 50 and routinely evaluated for normal karyotypic phenotype and absence of mycoplasma contamination. […]
Please mark Criterion met if the recorded Proliferative Response Total cells is equal to or greater than 3000, and Criterion not met if it falls below.

smiles.entry: COc1ccccc1C1=C(c2cn(CCCNC(C)=O)c3ncccc23)C(=O)NC1=O
class.label: Criterion not met
--
smiles.entry: COCCCn1cc(C2=C(c3ccccc3O)C(=O)NC2=O)c2cccnc21
class.label: Criterion not met
--
smiles.entry: CC(C)(O)CCn1nc(C2=C(c3cn(-c4cccnc4)c4ccccc34)C(=O)NC2=O)c2ccccc21
class.label: Criterion met
--
smiles.entry: Cn1cc(C2=C(c3nn(CCCn4ccnn4)c4ccccc34)C(=O)NC2=O)c2cc(Cl)ccc21
class.label: Criterion met
--
smiles.entry: O=C1NC(=O)C(c2cn(-c3cncnc3)c3ccccc23)=C1c1cn(CCO)c2ccccc12
class.label: Criterion met
--
smiles.entry: O=C1CCCCn2cc(c3cccnc32)C2=C(C(=O)NC2=O)c2cn(c3ncccc23)CCCC1
class.label: Criterion not met
--
smiles.entry: O=C1NC(=O)C2=C1c1cn(c3ncccc13)CCOCCOCCOCCOCCOCCn1cc2c2cccnc21
class.label: Criterion not met

* * *

Test system: human embryonic stem cells (H9 or H1 lines)
method.description: Plate reader (MTS) proliferation assay
Assay type: cell-based
settings: average of replicate raw data
This listing pairs molecules with measured Average.
reported.metric: Average

smiles.entry: O=C1NC(=O)C(c2nn(CCCO)c3ccccc23)=C1c1cn(-c2cccnc2)c2ccc(Cl)cc12
assay.result: 1.0617

smiles.entry: O=C1NC(=O)C2=C1c1cn(c3ccccc13)CCOCCOCCn1cc2c2ccccc21
assay.result: 0.6350

smiles.entry: O=C1NC(=O)C(c2cn(CCOCCOCCO)c3ccccc23)=C1c1cn(CCO)c2ccccc12
assay.result: 1.0686

smiles.entry: O=C1NC(=O)C2=C1c1cn(c3ccccc13)CCOCCOCCN(Cc1cccs1)CCn1cc2c2ccccc21
assay.result: 1.0839

* * *

Test system: human embryonic stem cells (H9 line)
method.description: High content screening assay: cell number (proliferative response)
Format: cell-based
settings: cell number in the wells analysed for SOX-17 expression
The following compounds are shown together with reported Proliferative Response Total cells values.

compound: Cn1ccc(C2=C(c3cn(CCCO)c4ncccc34)C(=O)NC2=O)n1 [Compound 209]
tested.target: human embryonic stem cells (H9 line)
Proliferative Response Total cells: 2473
--
compound: O=C1NC(=O)C(c2cn(CCCO)c3ncccc23)=C1c1cnccn1 [Compound 47]
tested.target: human embryonic stem cells (H9 line)
Proliferative Response Total cells: 10447
--
compound: OCCC#Cc1nc(-c2ccc(F)cc2)c(-c2ccncc2)n1CCCc1ccccc1 [Compound 158]
tested.target: human embryonic stem cells (H9 line)
Proliferative Response Total cells: 6376
--
compound: O=C1NC(=O)C(c2cn(CCCO)c3ncccc23)=C1c1cc(Cl)sc1Cl [Compound 18]
tested.target: human embryonic stem cells (H9 line)
Proliferative Response Total cells: 3
--
compound: CN(C)CCCn1cc(C2=C(c3ccccc3Cl)C(=O)NC2=O)c2cccnc21 [Compound 12]
tested.target: human embryonic stem cells (H9 line)
Proliferative Response Total cells: 2460.5
--
compound: O=C1NC(=O)C2=C1c1cn(c3ncccc13)CCOCCOCCOCCOCCn1cc2c2cccnc21 [Compound 6]
tested.target: human embryonic stem cells (H9 line)
Proliferative Response Total cells: 9964.5
--
compound: Cn1cc(C2=C(c3nn(CCCn4ccnc4)c4ccccc34)C(=O)NC2=O)c2cc(Cl)ccc21 [Compound 231]
tested.target: human embryonic stem cells (H9 line)
Proliferative Response Total cells: 13789
--
compound: O=C1NC(=O)C2=C1c1cn(c3ncccc13)CCOCCOCCOCCn1cc2c2cccnc21 [Compound 167]
tested.target: human embryonic stem cells (H9 line)
Proliferative Response Total cells: 6217
--
compound: O=C(Nc1ccc(C(=O)N2CC3CSCCN3Cc3ccccc32)c(Cl)c1)c1cc(Cl)cc(Cl)c1 (stereo not shown) [Compound 166]
tested.target: human embryonic stem cells (H9 line)
Proliferative Response Total cells: 562
--
compound: COCCN1CCOCCn2cc(c3ccccc32)C2=C(C(=O)NC2=O)c2nn(c3ccccc23)CCOCC1 [Compound 10]
tested.target: human embryonic stem cells (H9 line)
Proliferative Response Total cells: 4645.5
--
compound: O=C1NC(=O)C(c2nn(CCCO)c3ccccc23)=C1c1cn(-c2ccc3ccccc3c2)c2ccccc12 [Compound 13]
tested.target: human embryonic stem cells (H9 line)
Proliferative Response Total cells: 4783
--
compound: COc1ccccc1C1=C(c2cn(CCCNC(=O)OC(C)(C)C)c3ncccc23)C(=O)NC1=O [Compound 26]
tested.target: human embryonic stem cells (H9 line)
Proliferative Response Total cells: 109
--
compound: CN(C)CCCn1cc(C2=C(c3cccc4ccccc34)C(=O)NC2=O)c2cccnc21 [Compound 175]
tested.target: human embryonic stem cells (H9 line)
Proliferative Response Total cells: 1
--
compound: Cc1c[nH]c(-c2cnc(NCCNc3ccc(C#N)cn3)nc2-c2ccc(Cl)cc2Cl)n1 [Compound 221]
tested.target: human embryonic stem cells (H9 line)
Proliferative Response Total cells: 21070
--
compound: CN(CCO)CCCn1nc(C2=C(c3cn(-c4cccnc4)c4ccccc34)C(=O)NC2=O)c2ccccc21 [Compound 198]
tested.target: human embryonic stem cells (H9 line)
Proliferative Response Total cells: 2386
--
compound: CN1CCCn2cc(c3ccccc32)C2=C(C(=O)NC2=O)c2cn(c3ccccc23)CCOCCOCC1 [Compound 3]
tested.target: human embryonic stem cells (H9 line)
Proliferative Response Total cells: 1766
